# Test system: SW-620 colon
# ASSAY INFO: NCI tumour cell line growth inhibition, 48 h
QUANTITY KIND: TGI

Request - read-out TGI | tested on SW-620 colon | compound Fc1cccc(C2ON=C(c3ccccc3)N2C23CC4CC(CC(C4)C2)C3)c1 (stereo not given) > 10 µM

Request - read-out TGI | tested on SW-620 colon | compound CCOc1ccccc1NC(=O)C1=C(C)NC(C)=C(C(=O)Nc2ccccc2OCC)C1c1ccc2c(c1)OCO2 > 100 µM

Request - read-out TGI | tested on SW-620 colon | compound COc1cc(C2C3=C(NC(=O)C2C#N)c2ccc4ccccc4c2OCC3)cc(OC)c1OC (stereo not given) > 100 µM

Request - read-out TGI | tested on SW-620 colon | compound CCOC(=O)c1c(-c2ccc(Cl)cc2)c(C#N)c(=S)n(C2OC(COC(C)=O)C(OC(C)=O)C(OC(C)=O)C2OC(C)=O)c1C (stereo not given) > 100 µM

Request - read-out TGI | tested on SW-620 colon | compound COc1ccc(/C(C#N)=C2/O/C(=N/N)C(c3ccc(OC)c(OC)c3)C2=O)cc1OC (stereo not given) > 100 µM

Request - read-out TGI | tested on SW-620 colon | compound O=C(c1ccccc1)C1C(c2ccccc2[N+](=O)[O-])N1C1CCCCC1 (stereo not given) > 26.6 µM

Request - read-out TGI | tested on SW-620 colon | compound CN(C)CC(=O)N1CCc2c([nH]c3ccccc23)C1c1cccnc1 (stereo not given) > 100 µM

Request - read-out TGI | tested on SW-620 colon | compound CC(C)(C)C(=O)C(N)C(=O)C(C)(C)C > 100 µM

Request - read-out TGI | tested on SW-620 colon | compound O=C(O)c1cc2ccc(Cl)cc2c(O)c1C1=CCCCC1 > 100 µM

Request - read-out TGI | tested on SW-620 colon | compound CC(=O)Nc1ccc2c(c1)[nH]c(=O)c1cc(Cl)ccc12 > 100 µM

Request - read-out TGI | tested on SW-620 colon | compound CC(C)OC(=O)c1cc(NC(=S)OC(C)C)ccc1Cl > 64.6 µM

Request - read-out TGI | tested on SW-620 colon | compound N#Cc1nc(-c2ccsc2)oc1N > 100 µM

Request - read-out TGI | tested on SW-620 colon | compound CNc1ccc(CSc2ccc(C)cc2)cc1 > 100 µM

Request - read-out TGI | tested on SW-620 colon | compound COc1cc([C@H]2c3cc4c(cc3[C@H](NCc3ccc(F)cc3)C3COC(=O)[C@H]32)OCO4)cc(OC)c1O (stereo not given in full) 21.4 µM

Request - read-out TGI | tested on SW-620 colon | compound Clc1cc(Cl)cc(Nc2ccc3c(OCCCN4CCOCC4)cccc3n2)c1 3.69 µM

----------
# Tested on: SN12C renal
# ASSAY INFO: NCI tumour cell line growth inhibition, 48 h
QUANTITY KIND: TGI (µM)
Only the number, expressed in µM, is required.

Given the entry O=C(N[C@H]1CC2(C=C(I)C(=O)C(I)=C2)OC1=O)OCc1ccccc1 , report its measured TGI. 32.3

Given the entry OCCN1CCCN(CCCN2c3ccccc3Sc3ccc(C(F)(F)F)cc32)CC1 , report its measured TGI. 18.5

Given the entry C=C1CCC2C(C)(CO)C(O)CCC2(C)C1C/C=C1\C(=O)OCC1O (stereo not given) , report its measured TGI. 35.8

Given the entry COc1ccc2c3c(c4cc(OC)c(OC)cc4c2c1)CN1CCC[C@H]1[C@@H]3O , report its measured TGI. 0.237
